Tested on: SK-OV-3 ovarian
Experiment: NCI-60 one-dose screen, 48 h
Conditions: 10 µM unless noted
Compounds without any hit were thinned out: in the full panel of roughly 83,000, 20% have a hit. Activity calls are given as the source filed them. Rule for the calls: active = growth percent below 10; inactive = the rest.
Select the matching outcome among 1.0 for active, 0.0 for inactive

Call for entry `O=C(Nc1ccccc1)Nc1ccc(C(=O)/C=C/c2ccc(N3CCCC3)cc2)cc1` :
0.0

Call for entry `O=c1[nH]c(CN2CCN(c3cccc(Cl)c3)CC2)nc2cc(Cl)ccc12` :
0.0

Call for entry `COC(=O)C(=Cc1ccccc1[N+](=O)[O-])C(=O)OC` :
0.0

Call for entry `CC1(C)CC[C@]23CC[C@]4(C)[C@H](CC[C@@H]5[C@@]6(C)C/C(=C/c7ccncc7)C(=O)C(C)(C)[C@@H]6CC[C@]54C)[C@H]2[C@H]1OC3=O` :
0.0

Call for entry CCN(CC)c1ccc2cc(C(Nc3ccc(Cl)cc3)c3nnnn3C(C)(C)C)c(=O)oc2c1 (stereo not given) :
0.0

Call for entry CC(C)[N+](C)(C)CC(O)COc1cccc2ccccc12 (stereo not given) :
0.0

Call for entry CCCCN(CC)CC(CC)Nc1cc(OC)cc2cccnc12 (stereo not given) :
0.0

Call for entry `O=C1Nc2ccccc2/C1=C/C(=O)c1ccc(N2CCOCC2)cc1` :
0.0

Call for entry `CC1(C)CC[C@]2(C(=O)O)CC[C@]3(C)C(=CC[C@@H]4[C@@]5(C)C/C(=C/c6ccco6)C(=O)C(C)(C)[C@@H]5CC[C@]43C)[C@@H]2C1` :
1.0

Call for entry `O=C(CCN1CCCCC1)c1ccc(Cl)cc1` :
0.0
